Reference for the values: patent US20240058347A1

assay procedure: Single dose pharmacokinetics of VRx-3996 in patients, serum, cycle 1 day 1
Assay type: in vivo, humans
applied conditions: human, po, Treatment B = 10 mg VRx-3996 p.o. and 450 mg Valganciclovir p.o., single dose, N=1, read-out: Half-Life, geometric mean (converted)
Protocol: Patients enrolled in study were administered oral nanatinostat and valganciclovir at predefined doses. […] 8.1 software.
result type: half-life (h)
The answer is to be given in h; state only the numeric part.

Prompt: Bench note: what half-life did O=C(NO)c1cnc(N2CC3C(C2)C3NCc2ccc3cc(F)ccc3n2)nc1 (stereo not shown) show?
Completion: 1.17

---

assayed target: HDAC9 (Homo sapiens, UniProt Q9UKV0)
Sequence (Q9UKV0 whole entry): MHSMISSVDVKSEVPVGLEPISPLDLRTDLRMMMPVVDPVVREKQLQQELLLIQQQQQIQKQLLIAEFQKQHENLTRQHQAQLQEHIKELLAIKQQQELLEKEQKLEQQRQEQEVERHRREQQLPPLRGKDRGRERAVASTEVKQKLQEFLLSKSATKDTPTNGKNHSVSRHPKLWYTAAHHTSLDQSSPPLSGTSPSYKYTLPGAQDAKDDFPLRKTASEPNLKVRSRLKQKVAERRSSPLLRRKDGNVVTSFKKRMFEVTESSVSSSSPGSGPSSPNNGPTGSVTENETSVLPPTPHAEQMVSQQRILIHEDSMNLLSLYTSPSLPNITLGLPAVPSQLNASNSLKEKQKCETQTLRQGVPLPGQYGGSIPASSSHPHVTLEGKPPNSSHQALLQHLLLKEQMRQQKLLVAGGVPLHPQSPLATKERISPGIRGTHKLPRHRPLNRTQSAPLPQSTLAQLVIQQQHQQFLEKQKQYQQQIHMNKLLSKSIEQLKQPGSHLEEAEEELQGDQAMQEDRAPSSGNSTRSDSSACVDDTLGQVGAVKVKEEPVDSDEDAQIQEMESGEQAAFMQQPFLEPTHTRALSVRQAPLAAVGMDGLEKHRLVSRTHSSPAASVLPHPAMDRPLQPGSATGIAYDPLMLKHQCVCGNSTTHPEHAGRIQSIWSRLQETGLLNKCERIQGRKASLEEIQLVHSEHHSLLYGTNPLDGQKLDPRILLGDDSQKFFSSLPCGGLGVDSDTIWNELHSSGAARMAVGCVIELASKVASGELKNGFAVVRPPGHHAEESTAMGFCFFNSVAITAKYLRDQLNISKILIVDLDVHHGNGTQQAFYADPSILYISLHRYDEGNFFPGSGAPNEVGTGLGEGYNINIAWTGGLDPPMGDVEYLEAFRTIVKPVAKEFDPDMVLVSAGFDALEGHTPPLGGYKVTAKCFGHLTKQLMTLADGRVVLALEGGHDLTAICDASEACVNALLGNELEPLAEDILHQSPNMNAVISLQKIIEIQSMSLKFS
result type: IC50 (nM)
State just the number; it will be interpreted in nM.

Prompt: Fill in: IC50 of O=C(NO)c1cnc(N2CC3C(C2)C3NCc2ccc3cc(F)ccc3n2)nc1 (stereo not shown) is ___
Completion: 440

---

assay procedure: Single dose pharmacokinetics of VRx-3996 in patients, serum, cycle 1 day 1
Format: in vivo, humans
applied conditions: human, po, Treatment A = 5 mg VRx-3996 p.o. and 450 mg Valganciclovir p.o., single dose, N=1, read-out: AUC, geometric mean
result type: AUC (ng·h/mL)
A number alone suffices; assume ng·h/mL.

Prompt: Fill blank: measured AUC of the compound O=C(NO)c1cnc(N2CC3C(C2)C3NCc2ccc3cc(F)ccc3n2)nc1 (stereo not shown) is ____.
Completion: 117

---

assay procedure: Single dose pharmacokinetics of VRx-3996 in patients, serum, cycle 1 day 1
Assay type: in vivo, humans
applied conditions: human, po, Treatment C = 10 mg VRx-3996 p.o. and 900 mg Valganciclovir p.o., single dose, N=4, read-out: AUC, geometric mean
result type: AUC
Please make sure the unit comes right after the number.

Prompt: Sample O=C(NO)c1cnc(N2CC3C(C2)C3NCc2ccc3cc(F)ccc3n2)nc1 (stereo not shown) [Nstat] — what was its AUC?
Completion: 322 ng·h/mL

---

assayed target: HDAC3/NCOR2 (Homo sapiens, UniProt O15379)
Sequence (O15379 whole entry): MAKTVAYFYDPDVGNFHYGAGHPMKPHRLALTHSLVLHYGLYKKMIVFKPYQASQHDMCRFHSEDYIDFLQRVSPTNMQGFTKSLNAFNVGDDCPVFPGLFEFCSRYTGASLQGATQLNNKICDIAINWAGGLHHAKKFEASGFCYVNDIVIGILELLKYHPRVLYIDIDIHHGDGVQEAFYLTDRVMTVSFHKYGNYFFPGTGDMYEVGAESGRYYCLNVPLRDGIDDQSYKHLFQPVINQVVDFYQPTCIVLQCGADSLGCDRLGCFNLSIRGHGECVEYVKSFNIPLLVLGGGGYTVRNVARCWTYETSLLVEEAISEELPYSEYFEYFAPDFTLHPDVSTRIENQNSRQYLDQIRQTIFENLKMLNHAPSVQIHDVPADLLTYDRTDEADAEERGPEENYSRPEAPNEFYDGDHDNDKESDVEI
Sequence (Q9Y618 395-489 partner limits assumed): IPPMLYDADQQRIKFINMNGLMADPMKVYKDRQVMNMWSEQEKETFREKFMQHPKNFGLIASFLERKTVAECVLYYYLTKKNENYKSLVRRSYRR
assay procedure: biochemical
result type: pIC50
Lab note: report pIC50 as minus log10 of the concentration in molar units, number only.

Prompt: Quick check: pIC50 on HDAC3/NCOR2 (Homo sapiens, UniProt O15379), item O=C(NO)c1cnc(N2CC3C(C2)C3NCc2ccc3cc(F)ccc3n2)nc1 (stereo not shown) ?
Completion: 7.92

---

assay procedure: Single dose pharmacokinetics of VRx-3996 in patients, serum, cycle 1 day 1
Type: in vivo, humans
applied conditions: human, po, Treatment C = 10 mg VRx-3996 p.o. and 900 mg Valganciclovir p.o., single dose, N=6, read-out: AUClast, geometric mean
result type: AUC(0-t) (ng·h/mL)
Give a bare numeral; the unit ng·h/mL is implied.

Prompt: Fill blank: measured AUC(0-t) of the compound O=C(NO)c1cnc(N2CC3C(C2)C3NCc2ccc3cc(F)ccc3n2)nc1 (stereo not shown) is ____.
Completion: 227

---

assay procedure: Single dose pharmacokinetics of VRx-3996 in patients, serum, cycle 1 day 1
Type: in vivo, humans
applied conditions: human, po, Treatment A = 5 mg VRx-3996 p.o. and 450 mg Valganciclovir p.o., single dose, N=4, read-out: Cmax, geometric mean
result type: Cmax (ng/mL)
Answer in ng/mL, number only, no unit symbol.

Prompt: Consider the compound O=C(NO)c1cnc(N2CC3C(C2)C3NCc2ccc3cc(F)ccc3n2)nc1 (stereo not shown) and give its measured Cmax.
Completion: 18.5
